- test target: Neuronal acetylcholine receptor subunit alpha-4 (Homo sapiens, UniProt P43681); note: assay procedure not described here
- Sequence (P43681 whole entry): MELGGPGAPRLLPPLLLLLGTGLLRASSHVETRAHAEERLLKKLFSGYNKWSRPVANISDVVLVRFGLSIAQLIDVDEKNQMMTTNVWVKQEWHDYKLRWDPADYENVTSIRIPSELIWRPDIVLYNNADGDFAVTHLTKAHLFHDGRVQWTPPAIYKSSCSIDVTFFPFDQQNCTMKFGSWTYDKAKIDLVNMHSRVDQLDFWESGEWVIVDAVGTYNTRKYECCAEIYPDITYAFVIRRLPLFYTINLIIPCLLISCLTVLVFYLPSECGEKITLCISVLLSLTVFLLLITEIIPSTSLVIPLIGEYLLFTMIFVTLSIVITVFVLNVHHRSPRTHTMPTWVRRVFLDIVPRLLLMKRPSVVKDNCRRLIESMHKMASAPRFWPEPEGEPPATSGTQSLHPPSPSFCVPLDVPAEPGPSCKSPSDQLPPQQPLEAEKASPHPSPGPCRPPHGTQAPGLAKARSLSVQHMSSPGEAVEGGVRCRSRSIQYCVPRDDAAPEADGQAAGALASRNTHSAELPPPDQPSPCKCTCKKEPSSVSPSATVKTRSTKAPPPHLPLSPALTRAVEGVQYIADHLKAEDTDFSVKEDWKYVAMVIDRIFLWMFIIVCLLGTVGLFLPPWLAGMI
Catalogue of AC50 values
attribute measured: AC50

>>> endpoint_value("CC1(C)S[C@@H]2[C@H](NC(=O)C(C(=O)O)c3ccccc3)C(=O)N2[C@H]1C(=O)O (some centres undefined) [CARBENICILLIN]")
"> 30 µM"
>>> endpoint_value("CC/C=C\\C/C=C\\C/C=C\\C/C=C\\C/C=C\\CCCC(=O)OCC [ICOSAPENT ETHYL]")
"> 30 µM"
>>> endpoint_value("COc1cc(C(=O)NS(=O)(=O)c2ccccc2C)ccc1Cc1cn(C)c2ccc(NC(=O)OC3CCCC3)cc12 [ZAFIRLUKAST]")
"> 10 µM"
>>> endpoint_value("Cc1cc(C2CCCCC2)n(O)c(=O)c1 [CICLOPIROX]")
"> 30 µM"

Data credit: ChEMBL document CHEMBL5291721
